Data provenance is ChEMBL document CHEMBL1629527.

# System: Candida albicans
# ASSAY_TEXT: Antifungal activity against Candida albicans after 48 to 72 hrs
# Assay type: functional
EXPERIMENTAL_ENDPOINT: MFC50 (µg/mL)
// note: answer is a bare numeric in µg/mL

Prompt: GET /values?readout=MFC50&item= CCCCCc1cc[n+](CCCCCCCCCCCC[n+]2ccc(CCCCC)c(C)c2)cc1C.[Cl-].[Cl-]
Completion: 1.56

Prompt: GET /values?readout=MFC50&item= CCCCCCc1cc[n+](CCCCCCCCCCCC[n+]2ccc(CCCCCC)cc2)cc1.[Cl-].[Cl-]
Completion: 1.56

Prompt: GET /values?readout=MFC50&item= CCCCCc1cc[n+](CCCCCCCCCCCC[n+]2ccc(CCCCC)cc2)cc1.[Cl-].[Cl-]
Completion: 1.48

Prompt: GET /values?readout=MFC50&item= C=CCCCc1cc[n+](CCCCCCCCCCCC[n+]2ccc(CCCC=C)cc2)cc1.[Cl-].[Cl-]
Completion: 1.47

---

# MFC90 listing for each entry below
# Test system: Candida dubliniensis
# ASSAY_TEXT: Antifungal activity against Candida dubliniensis after 48 to 72 hrs
# Format: functional
// note: answer is a bare numeric in µg/mL

COMPOUND_STRUCTURE	UNITS	MFC90
C=CCCCc1cc[n+](CCCCCCCCCCCC[n+]2ccc(CCCC=C)cc2)cc1.[Cl-].[Cl-]	µg/mL	2.93
CCCCCc1cc[n+](CCCCCCCCCCCC[n+]2ccc(CCCCC)c(C)c2)cc1C.[Cl-].[Cl-]	µg/mL	1.56
CCCCCCc1cc[n+](CCCCCCCCCCCC[n+]2ccc(CCCCCC)cc2)cc1.[Cl-].[Cl-]	µg/mL	0.79

In the following, a different molecule is considered.
Prompt: GET /values?readout=MFC90&item= CCCCCc1cc[n+](CCCCCCCCCCCC[n+]2ccc(CCCCC)cc2)cc1.[Cl-].[Cl-]
Completion: 1.48

---

# Tested on: Candida tropicalis
# ASSAY_TEXT: Antifungal activity against Candida tropicalis after 24 to 72 hrs by broth microdilution method
# Format: functional
Consider the cut-off 0.7 mg/L. If the recorded MIC is strictly smaller, the label is 1.0; if not, the label is 0.0.

Consider the worked cases shown below.
COMPOUND	CLASSIFICATION
CCCCCc1cc[n+](CCCCCCCCCCCC[n+]2ccc(CCCCC)c(C)c2)cc1C.[Cl-].[Cl-]	0.0
C[C@@H]1[C@H](O)[C@@H](C)/C=C/C=C/C=C/C=C/C=C/C=C/C=C/[C@H](O[C@@H]2O[C@H](C)[C@@H](O)[C@H](N)[C@@H]2O)C[C@@H]2O[C@](O)(C[C@@H](O)C[C@@H](O)[C@H](O)CC[C@@H](O)C[C@@H](O)CC(=O)O[C@H]1C)C[C@H](O)[C@H]2C(=O)O	1.0
C=CCCCc1cc[n+](CCCCCCCCCCCC[n+]2ccc(CCCC=C)cc2)cc1.[Cl-].[Cl-]	0.0
C[C@@H](c1ncncc1F)[C@](O)(Cn1cncn1)c1ccc(F)cc1F	1.0
CCC(C)n1ncn(-c2ccc(N3CCN(c4ccc(OCC5COC(Cn6cncn6)(c6ccc(Cl)cc6Cl)O5)cc4)CC3)cc2)c1=O (stereo not given)	1.0

Prompt: Lab log: compare recorded MIC with 0.7 mg/L; is it strictly lower for OC(Cn1cncn1)(Cn1cncn1)c1ccc(F)cc1F ?
Completion: 0.0

Prompt: Lab log: compare recorded MIC with 0.7 mg/L; is it strictly lower for CC[C@@H]([C@H](C)O)n1ncn(-c2ccc(N3CCN(c4ccc(OC[C@@H]5CO[C@@](Cn6cncn6)(c6ccc(F)cc6F)C5)cc4)CC3)cc2)c1=O ?
Completion: 1.0

Prompt: Lab log: compare recorded MIC with 0.7 mg/L; is it strictly lower for CC[C@H](C)C[C@H](C)CCCCCCCCC(=O)N[C@H]1C[C@@H](O)[C@@H](NCCN)NC(=O)[C@@H]2[C@@H](O)CCN2C(=O)[C@H]([C@H](O)CCN)NC(=O)[C@H]([C@H](O)[C@@H](O)c2ccc(O)cc2)NC(=O)[C@@H]2C[C@@H](O)CN2C(=O)[C@H]([C@@H](C)O)NC1=O ?
Completion: 1.0

Prompt: Lab log: compare recorded MIC with 0.7 mg/L; is it strictly lower for CCCCCCc1cc[n+](CCCCCCCCCCCC[n+]2ccc(CCCCCC)cc2)cc1.[Cl-].[Cl-] ?
Completion: 0.0

---

# Test system: Pichia kudriavzevii
# ASSAY_TEXT: Antifungal activity against Candida krusei after 48 to 72 hrs
# Assay type: functional
# TEST_CONTEXT: Pichia kudriavzevii
EXPERIMENTAL_ENDPOINT: MFC (mg/L)
// note: answer is a bare numeric in mg/L

Check out these entries, answers already filled in.
COMPOUND_STRUCTURE	UNITS	MFC
C=CCCCc1cc[n+](CCCCCCCCCCCC[n+]2ccc(CCCC=C)cc2)cc1.[Cl-].[Cl-]	mg/L	0.75
CCCCCc1cc[n+](CCCCCCCCCCCC[n+]2ccc(CCCCC)c(C)c2)cc1C.[Cl-].[Cl-]	mg/L	0.79
CCCCCCc1cc[n+](CCCCCCCCCCCC[n+]2ccc(CCCCCC)cc2)cc1.[Cl-].[Cl-]	mg/L	0.79

In the following, a different compound is considered.
Prompt: GET /values?readout=MFC&item= CCCCCc1cc[n+](CCCCCCCCCCCC[n+]2ccc(CCCCC)cc2)cc1.[Cl-].[Cl-]
Completion: 0.38

---

# System: Cryptococcus gattii species complex
# ASSAY_TEXT: Antifungal activity against Cryptococcus gattii after 24 to 72 hrs by broth microdilution method
# Format: functional, Cryptococcus bacillisporus
Consider the cut-off 0.8 µg/mL. If the recorded MIC50 is strictly smaller, the label is true (1); if not, the label is false (0).

Consider the worked cases shown below.
MOLECULE	TEST_TARGET	CLASSIFICATION
CC[C@@H]([C@H](C)O)n1ncn(-c2ccc(N3CCN(c4ccc(OC[C@@H]5CO[C@@](Cn6cncn6)(c6ccc(F)cc6F)C5)cc4)CC3)cc2)c1=O [POSACONAZOLE]	Cryptococcus gattii species complex	true (1)
CCC(C)n1ncn(-c2ccc(N3CCN(c4ccc(OCC5COC(Cn6cncn6)(c6ccc(Cl)cc6Cl)O5)cc4)CC3)cc2)c1=O (stereo not given) [ITRACONAZOLE]	Cryptococcus gattii species complex	true (1)
C=CCCCc1cc[n+](CCCCCCCCCCCC[n+]2ccc(CCCC=C)cc2)cc1.[Cl-].[Cl-]	Cryptococcus gattii species complex	false (0)

Prompt: Lab log: compare recorded MIC50 with 0.8 µg/mL; is it strictly lower for CCCCCc1cc[n+](CCCCCCCCCCCC[n+]2ccc(CCCCC)cc2)cc1.[Cl-].[Cl-] ?
Completion: true (1)

---

# Tested on: Cunninghamella bertholletiae
# ASSAY_TEXT: Antifungal activity against Cunninghamella bertholletiae 99-12187 after 24 to 72 hrs by broth microdilution method
# Assay type: functional
# MIC listing for each entry below
// note: answer is a bare numeric in µg/mL

Check out these entries, answers already filled in.
COMPOUND_STRUCTURE	UNITS	MIC
CCCCC(CCCC)c1cc[n+](CCCCCCCCCCCC[n+]2ccc(C(CCCC)CCCC)c(C)c2)cc1C.[Cl-].[Cl-]	µg/mL	14.9
CCCCCc1cc[n+](CCCCCCCCCCCC[n+]2ccc(CCCCC)cc2)cc1.[Cl-].[Cl-]	µg/mL	47.3
CCCCCc1cccc[n+]1CCCCCCCCCCCC[n+]1ccccc1CCCCC.[Cl-].[Cl-]	µg/mL	47.3
CCCCCc1cc[n+](CCCCCCCCCCCC[n+]2ccc(CCCCC)c(CCCCC)c2)cc1CCCCC.[Cl-].[Cl-]	µg/mL	7.5
[Cl-].[Cl-].c1ccc(CCCc2cc[n+](CCCCCCCCCCCC[n+]3ccc(CCCc4ccccc4)cc3)cc2)cc1	µg/mL	27.9

In the following, a different compound is considered.
Prompt: GET /values?readout=MIC&item= CCCCCCc1cc[n+](CCCCCCCCCCCC[n+]2ccc(CCCCCC)cc2)cc1.[Cl-].[Cl-]
Completion: 12.7

---

# MIC listing for each entry below
# Test system: Nakaseomyces glabratus
# ASSAY_TEXT: Antifungal activity against Candida glabrata 04-202345 after 24 to 72 hrs by broth microdilution method
# Type: functional
// note: answer is a bare numeric in µg/mL

Check out these entries, answers already filled in.
COMPOUND_STRUCTURE	UNITS	RECORDED_NUMBER
CCCCCc1cc[n+](CCCCCCCCCCCC[n+]2ccc(CCCCC)cc2)cc1.[Cl-].[Cl-]	µg/mL	1.48
CCCCCc1cccc[n+]1CCCCCCCCCCCC[n+]1ccccc1CCCCC.[Cl-].[Cl-]	µg/mL	0.37
[Cl-].[Cl-].c1ccc(CCCc2cc[n+](CCCCCCCCCCCC[n+]3ccc(CCCc4ccccc4)cc3)cc2)cc1	µg/mL	0.87
CCCCCCc1cc[n+](CCCCCCCCCCCC[n+]2ccc(CCCCCC)cc2)cc1.[Cl-].[Cl-]	µg/mL	0.79
C=CCCCc1cc[n+](CCCCCCCCCCCC[n+]2ccc(CCCC=C)cc2)cc1.[Cl-].[Cl-]	µg/mL	1.5

Prompt: GET /values?readout=MIC&item= CCCCC(CCCC)c1cc[n+](CCCCCCCCCCCC[n+]2ccc(C(CCCC)CCCC)c(C)c2)cc1C.[Cl-].[Cl-]
Completion: 1.86

Prompt: GET /values?readout=MIC&item= CC(C)CCc1cc[n+](CCCCCCCCCCCC[n+]2ccc(CCC(C)C)cc2)cc1.[Cl-].[Cl-]
Completion: 1.48

Prompt: GET /values?readout=MIC&item= CC(C)(C)CCc1cc[n+](CCCCCCCCCCCC[n+]2ccc(CCC(C)(C)C)cc2)cc1.[Cl-].[Cl-]
Completion: 0.79

Prompt: GET /values?readout=MIC&item= CCCCCc1cc[n+](CCCCCCCCCCCC[n+]2ccc(CCCCC)c(C)c2)cc1C.[Cl-].[Cl-]
Completion: 0.79

Prompt: GET /values?readout=MIC&item= CCCCCc1cc[n+](CCCCCCCCCCCC[n+]2ccc(CCCCC)c(CCCCC)c2)cc1CCCCC.[Cl-].[Cl-]
Completion: 0.93
